Hey, just so you know, these numbers are from the Kinase Knowledgebase extract (Sharma et al. 2016).

Molecular target: CDK2 (UniProt P24941)
Hi! Just check whether IC50 is below 300 nM. Below gives Condition met, equal or above gives Condition not met.

Illustrative cases are given below, each with its answer.
CCc1cnn2c(Nc3ccc(C(N)=O)cc3)cc(N[C@H]3CC[C@@H](N)CC3)nc12 Condition not met
CC(C)c1cnn2c(Nc3ccc(S(C)(=O)=O)cc3)cc(Cl)nc12 Condition met

*Q* Hello, I'm reviewing records and need to know if IC50 of "CSc1cc(Nc2cc(N[C@H]3CC[C@H](N)CC3)nc3ccnn23)ccc1S(=O)(=O)N(C)C" is below 300 nM. Could you check?
*A* Condition not met

*Q* Hello, I'm reviewing records and need to know if IC50 of "CC(C)c1cnn2c(Nc3ccc(S(=O)(=O)N(C)C)cc3)cc(Nc3ccncc3)nc12" is below 300 nM. Could you check?
*A* Condition not met

*Q* Hello, I'm reviewing records and need to know if IC50 of "CC(C)c1cnn2c(NCc3ccncc3)cc(-c3cccc(Br)c3)nc12" is below 300 nM. Could you check?
*A* Condition not met

*Q* Hello, I'm reviewing records and need to know if IC50 of "COc1cc(Nc2cc(N[C@H]3CC[C@H](N)CC3)nc3c(Br)cnn23)ccc1S(=O)(=O)N(C)C" is below 300 nM. Could you check?
*A* Condition met
